Target: anti-CD28 scFv (VH - linker 1 - VL) (biotinylated (site not given))
Sequence (scFv, as listed by the source): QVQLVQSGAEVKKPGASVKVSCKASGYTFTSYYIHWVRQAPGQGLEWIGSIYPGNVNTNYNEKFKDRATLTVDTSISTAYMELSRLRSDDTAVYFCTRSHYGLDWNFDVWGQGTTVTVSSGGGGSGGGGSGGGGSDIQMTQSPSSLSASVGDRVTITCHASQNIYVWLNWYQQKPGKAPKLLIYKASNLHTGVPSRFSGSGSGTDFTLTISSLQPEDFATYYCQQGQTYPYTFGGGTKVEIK
Experiment: phage ELISA; biotinylated anti-CD28 scFv on neutravidin plate, clonal phage supernatant, anti-M13-HRP detection;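 further: before phage addition, wells were pretreated with soluble CD28 protein in blocking buffer, or with blocking buffer only as the comparison, then phage were added without washing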
Each entry below lists one item and its recorded CD28 scFv signal value.
quantity measured: CD28 scFv signal

>>> meas_value("MFWCPTTMWNRCFT (tested as crude clonal phage supernatant; not shown: pIII of the bacteriophage to which the peptide is fused) [Phage-72, clonal phage peptide MFWCPTTMWNRCFT]")
0.662
>>> meas_value("MDWCPRDMWLFCYN (tested as crude clonal phage supernatant; not shown: pIII of the bacteriophage to which the peptide is fused) [Phage-74, clonal phage peptide MDWCPRDMWLFCYN]")
2.71
>>> meas_value("MDWCPRDLWFLCYN (tested as crude clonal phage supernatant; not shown: pIII of the bacteriophage to which the peptide is fused) [Phage-91, clonal phage peptide …]")
2.59
>>> meas_value("MDWCPRYLWSDCFA (tested as crude clonal phage supernatant; not shown: pIII of the bacteriophage to which the peptide is fused) [Phage-76, clonal phage peptide MDWCPRYLWSDCFA]")
2.73
>>> meas_value("MDWCPRYLWNECFY (tested as crude clonal phage supernatant; not shown: pIII of the bacteriophage to which the peptide is fused) [Phage-66, clonal phage peptide MDWCPRYLWNECFY]")
2.54
>>> meas_value("MDWCPRALWHECFN (tested as crude clonal phage supernatant; not shown: pIII of the bacteriophage to which the peptide is fused) [Phage-73, clonal phage peptide MDWCPRALWHECFN]")
2.69
>>> meas_value("ITWCPSSMWNRCFI (tested as crude clonal phage supernatant; not shown: pIII of the bacteriophage to which the peptide is fused) [Phage-70, clonal phage peptide ITWCPSSMWNRCFI]")
0.379
>>> meas_value("MDWCPIHMWADCFA (tested as crude clonal phage supernatant; not shown: pIII of the bacteriophage to which the peptide is fused) [Phage-69, clonal phage peptide MDWCPIHMWADCFA]")
2.46
>>> meas_value("MDWCPRHLWAECFF (tested as crude clonal phage supernatant; not shown: pIII of the bacteriophage to which the peptide is fused) [Phage-86, clonal phage peptide MDWCPRHLWAECFF]")
2.61
>>> meas_value("MDWCPIHLWHYCFN (tested as crude clonal phage supernatant; not shown: pIII of the bacteriophage to which the peptide is fused) [Phage-88, clonal phage peptide MDWCPIHLWHYCFN]")
2.6
>>> meas_value("MDWCPKYLWSVCFF (tested as crude clonal phage supernatant; not shown: pIII of the bacteriophage to which the peptide is fused) [Phage-84, clonal phage peptide MDWCPKYLWSVCFF]")
2.62
>>> meas_value("MDWCPIDLWHLCFY (tested as crude clonal phage supernatant; not shown: pIII of the bacteriophage to which the peptide is fused) [Phage-90, clonal phage peptide MDWCPIDLWHLCFY]")
2.59
>>> meas_value("MDWCPMDLWYQCFN (tested as crude clonal phage supernatant; not shown: pIII of the bacteriophage to which the peptide is fused) [Phage-85, clonal phage peptide MDWCPMDLWYQCFN]")
2.62
>>> meas_value("MDWCPRALWNVCFN (tested as crude clonal phage supernatant; not shown: pIII of the bacteriophage to which the peptide is fused) [Phage-89, clonal phage peptide MDWCPRALWNVCFN]")
2.6
>>> meas_value("MDWCPRHLWHECFF (tested as crude clonal phage supernatant; not shown: pIII of the bacteriophage to which the peptide is fused) [Phage-92, clonal phage peptide MDWCPRHLWHECFF]")
2.58
>>> meas_value("MDWCPRDLWHECFS (tested as crude clonal phage supernatant; not shown: pIII of the bacteriophage to which the peptide is fused) [Phage-79, clonal phage peptide MDWCPRDLWHECFS]")
2.65
>>> meas_value("MDWCPFYLWDECFN (tested as crude clonal phage supernatant; not shown: pIII of the bacteriophage to which the peptide is fused) [Phage-77, clonal phage peptide MDWCPFYLWDECFN]")
2.67
